- Method Summary: microbe, parasite or virus in culture
- Assay type: functional
- Conditions: Mycobacterium tuberculosis
The source made the active and inactive calls.
Readout Kind: CC50

Consider the following illustrative entries.
* COc1cccc(-c2cnc(NCc3cc(Cl)ccc3O)n2C)c1 | > 40 µM (active)
* COc1ccc(OC)c(Nc2nc(-c3sc(C)nc3C)cs2)c1 | > 40 µM (active)

Please look at the items below and tell me CC50 for each one, in order.
1. COc1ccc(/N=c2\cc(-c3ccc(O)cc3)oc3ccccc23)cc1
2. Cc1cc(CC(C)C)n(-c2nc3ccccc3c(=O)n2OCC(N)=O)n1

Solution:
1. 32.9 µM (active)
2. > 40 µM (active)

====

- System: Induced myeloid leukemia cell differentiation protein Mcl-1 (Homo sapiens)
- Sequence (Q07820 whole entry): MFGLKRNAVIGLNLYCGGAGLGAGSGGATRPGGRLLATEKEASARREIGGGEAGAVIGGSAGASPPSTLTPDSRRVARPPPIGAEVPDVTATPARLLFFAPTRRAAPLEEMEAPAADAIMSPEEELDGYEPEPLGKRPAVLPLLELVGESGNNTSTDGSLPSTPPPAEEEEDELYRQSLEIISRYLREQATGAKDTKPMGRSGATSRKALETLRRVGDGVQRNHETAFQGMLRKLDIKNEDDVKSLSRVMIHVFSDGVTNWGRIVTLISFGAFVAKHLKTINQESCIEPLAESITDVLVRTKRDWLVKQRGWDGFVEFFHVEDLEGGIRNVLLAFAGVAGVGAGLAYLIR
- Assay type: functional
Calls of active or inactive are those of the source.
Readout Kind: IC50

Consider the following illustrative entries.
- O=C(O)c1ccc(N/N=C/C2=C(N3CCOCC3)C(=C\c3ccccc3)/CC2)cc1: 4.44 µM (active)
- COc1ccc(N2CCC(CNC(=O)Nc3ccc(Cl)cc3)C2)cc1 (centres undefined): > 54 µM (not active)
- CCCSC1=N/C(=C\c2ccc([N+](=O)[O-])o2)C(=O)S1: 3.88 µM (active)
- Cc1cc2nc(-c3ccc(SCC(=O)N4CCN(C(=O)c5ccco5)CC4)nc3)[nH]c2cc1C: 3.63 µM (active)
- N/C(=N\N=C/c1ccc(-c2ccc(O)c(C(=O)O)c2)o1)N[N+](=O)[O-]: 3.86 µM (active)

Please look at the items below and tell me IC50 for each one, in order.
1. CN1CCN(CCCN2c3ccccc3Sc3ccc(Cl)cc32)CC1 [PROCHLORPERAZINE]
2. O=C(N=Nc1c(O)[nH]c2ccc([N+](=O)[O-])cc12)c1cc(-c2ccccc2Cl)nc2ccccc12
3. Cc1cc(NS(=O)(=O)c2ccc(Nc3nc(-c4sc(NC(=O)c5ccccc5)nc4C)cs3)cc2)no1
4. O=C(O)CCCCCN1C(=O)/C(=C\c2ccc(-c3ccc(Cl)cc3)o2)SC1=S

Solution:
1: 3.77 µM (active); 2: 1.18 µM (active); 3: 2.46 µM (active); 4: 1.27 µM (active)

====

- System: Sentrin-specific protease 7 (Homo sapiens, UniProt Q9BQF6)
- Sequence (Q9BQF6 whole entry): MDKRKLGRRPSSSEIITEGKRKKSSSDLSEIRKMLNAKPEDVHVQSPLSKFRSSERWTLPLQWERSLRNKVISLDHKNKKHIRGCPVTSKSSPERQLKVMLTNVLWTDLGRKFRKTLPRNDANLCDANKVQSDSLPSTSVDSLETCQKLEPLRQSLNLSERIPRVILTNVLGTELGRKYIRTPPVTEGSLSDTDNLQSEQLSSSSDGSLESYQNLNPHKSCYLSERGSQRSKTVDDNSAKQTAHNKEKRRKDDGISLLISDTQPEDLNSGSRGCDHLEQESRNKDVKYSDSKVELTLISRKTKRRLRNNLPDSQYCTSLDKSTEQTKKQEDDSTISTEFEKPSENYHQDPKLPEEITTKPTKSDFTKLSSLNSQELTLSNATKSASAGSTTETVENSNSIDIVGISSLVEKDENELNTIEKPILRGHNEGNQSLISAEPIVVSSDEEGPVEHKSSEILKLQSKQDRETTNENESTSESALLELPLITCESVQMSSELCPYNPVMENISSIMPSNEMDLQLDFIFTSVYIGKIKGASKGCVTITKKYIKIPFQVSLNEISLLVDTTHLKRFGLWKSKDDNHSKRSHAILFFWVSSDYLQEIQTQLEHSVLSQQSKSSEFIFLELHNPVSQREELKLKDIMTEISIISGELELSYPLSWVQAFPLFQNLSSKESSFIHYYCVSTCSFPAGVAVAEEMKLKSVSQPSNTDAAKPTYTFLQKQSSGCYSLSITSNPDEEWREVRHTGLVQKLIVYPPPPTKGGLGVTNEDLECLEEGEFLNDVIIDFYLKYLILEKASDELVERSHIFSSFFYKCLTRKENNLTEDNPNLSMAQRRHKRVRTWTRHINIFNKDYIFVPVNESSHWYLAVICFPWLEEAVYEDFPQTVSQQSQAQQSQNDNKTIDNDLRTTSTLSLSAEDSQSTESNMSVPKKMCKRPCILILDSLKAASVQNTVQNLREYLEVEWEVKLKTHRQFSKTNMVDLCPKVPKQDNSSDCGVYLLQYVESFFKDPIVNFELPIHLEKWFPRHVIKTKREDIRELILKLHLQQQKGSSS
- Method Summary: inhibition of human SENP7 cleavage activity – biochemical, luminescence, SAR follow-up (AID 504497)
- Assay type: functional
Calls of active or inactive are those of the source.
Pick one: active, inactive

Problem: Look up the recorded call for CC(=O)Oc1ccccc1/C=C(\C)c1noc(-c2ccccc2O)n1 in this test.
Solution: inactive

Problem: Look up the recorded call for O=C(Nc1nc2ccc(Cl)cc2s1)c1ccc(C(F)(F)F)cc1 in this test.
Solution: inactive

Problem: Look up the recorded call for N#Cc1c(NC(=O)c2ccc(Cn3cc(Br)cn3)o2)sc2c1CCCCC2 in this test.
Solution: inactive

Problem: Look up the recorded call for O=C(Nc1ccc(F)c(F)c1)c1ccc2c(c1)OCO2 in this test.
Solution: active

Problem: Look up the recorded call for O=C1/C(=C/c2cccc(F)c2)Oc2cc(O)ccc21 in this test.
Solution: active

Problem: Look up the recorded call for Cc1csc(C(=O)Nc2nc3ccccc3s2)c1 in this test.
Solution: active

The reported numbers originate from ChEMBL document CHEMBL1201862.
